- study conditions: in ethyl acetate, 288.15 K
parameter measured: solubility (mole fraction)
# respond with the number and nothing more

Lab note: measured solubility (mole fraction) of CC#C[C@]1(O)CC[C@H]2[C@@H]3CCC4=CC(=O)CCC4=C3[C@@H](c3ccc(N(C)C)cc3)C[C@@]21C was 0.000184

* * *

- study conditions: in THF, 313.15 K
parameter measured: solubility (mole fraction)

Lab note: measured solubility (mole fraction) of CC#C[C@]1(O)CC[C@H]2[C@@H]3CCC4=CC(=O)CCC4=C3[C@@H](c3ccc(N(C)C)cc3)C[C@@]21C was 0.000163

* * *

- study conditions: in n-butanol, 318.15 K
parameter measured: solubility (mole fraction)
# respond with the number and nothing more

Lab note: measured solubility (mole fraction) of CC#C[C@]1(O)CC[C@H]2[C@@H]3CCC4=CC(=O)CCC4=C3[C@@H](c3ccc(N(C)C)cc3)C[C@@]21C was 0.00103

* * *

- study conditions: in n-butanol, 303.15 K
parameter measured: solubility (mole fraction)
# respond with the number and nothing more

Lab note: measured solubility (mole fraction) of CC#C[C@]1(O)CC[C@H]2[C@@H]3CCC4=CC(=O)CCC4=C3[C@@H](c3ccc(N(C)C)cc3)C[C@@]21C was 0.000612

* * *

- study conditions: in methanol, 318.15 K
parameter measured: solubility (mole fraction)
# respond with the number and nothing more

Lab note: measured solubility (mole fraction) of CC#C[C@]1(O)CC[C@H]2[C@@H]3CCC4=CC(=O)CCC4=C3[C@@H](c3ccc(N(C)C)cc3)C[C@@]21C was 0.00414

* * *

- study conditions: in n-butanol, 298.15 K
parameter measured: solubility (mole fraction)

Lab note: measured solubility (mole fraction) of CC#C[C@]1(O)CC[C@H]2[C@@H]3CCC4=CC(=O)CCC4=C3[C@@H](c3ccc(N(C)C)cc3)C[C@@]21C was 0.000502

* * *

- study conditions: in THF, 283.15 K
parameter measured: solubility (mole fraction)

Lab note: measured solubility (mole fraction) of CC#C[C@]1(O)CC[C@H]2[C@@H]3CCC4=CC(=O)CCC4=C3[C@@H](c3ccc(N(C)C)cc3)C[C@@]21C was 6.95e-05

* * *

- study conditions: in n-butanol, 293.15 K
parameter measured: solubility (mole fraction)
# respond with the number and nothing more

Lab note: measured solubility (mole fraction) of CC#C[C@]1(O)CC[C@H]2[C@@H]3CCC4=CC(=O)CCC4=C3[C@@H](c3ccc(N(C)C)cc3)C[C@@]21C was 0.000412

* * *

- study conditions: in isopropanol, 308.15 K
parameter measured: solubility (mole fraction)
# respond with the number and nothing more

Lab note: measured solubility (mole fraction) of CC#C[C@]1(O)CC[C@H]2[C@@H]3CCC4=CC(=O)CCC4=C3[C@@H](c3ccc(N(C)C)cc3)C[C@@]21C was 0.00105

* * *

- study conditions: in n-propanol, 288.15 K
parameter measured: solubility (mole fraction)
# respond with the number and nothing more

Lab note: measured solubility (mole fraction) of CC#C[C@]1(O)CC[C@H]2[C@@H]3CCC4=CC(=O)CCC4=C3[C@@H](c3ccc(N(C)C)cc3)C[C@@]21C was 0.000226

* * *

- study conditions: in ethanol, 313.15 K
parameter measured: solubility (mole fraction)

Lab note: measured solubility (mole fraction) of CC#C[C@]1(O)CC[C@H]2[C@@H]3CCC4=CC(=O)CCC4=C3[C@@H](c3ccc(N(C)C)cc3)C[C@@]21C was 0.000472
